Tested on: RIOK2;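 note: KINOMEscan kinase panel screen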
CONDITIONS: concentration: 1 μM, replicates: in singlicate; n = 1
QUANTITY_MEASURED: %Inh

In: Which %Inh value is on record for `CC(C)Oc1ccc2c(-c3ccnc(Nc4ccc(N5CCN(C)CC5)cc4)n3)cnn2n1` ?
Out: 90%

In: Which %Inh value is on record for `O=C(NCCNc1ccnc(Nc2ccc(F)cc2)n1)c1cc2ccccc2s1` ?
Out: 0%

In: Which %Inh value is on record for `COc1cc2c(cc1OC[C@@H](O)CO)ncc1c3ccc(C#N)cc3[nH]c21` ?
Out: 0%

In: Which %Inh value is on record for `O=c1cc(N2CCOCC2)nc2n(Cc3cccc(F)c3)ccn12` ?
Out: 11%

In: Which %Inh value is on record for `Nc1nccc(-c2c(-c3ccc(F)cc3)ncn2C2CCN(CC(F)(F)F)CC2)n1` ?
Out: 0%

In: Which %Inh value is on record for `O=C1Cc2cc(Nc3nc(NCc4cccc(S(=O)(=O)C(F)(F)F)c4)ncc3C(F)(F)F)ccc2N1` ?
Out: 35%

Return reported %Inh values for all items listed beneath this line.
1. O=C(NCCNc1ccnc(Nc2ccc(F)cc2)n1)Nc1ccccc1F
2. Cc1ccc(NC(=O)c2ccnc(N3CCN(C)CC3)c2)cc1-c1ccc(C(=O)NCC2CC2)cc1

Out:
["5%", "0%"]

Return reported %Inh values for all items listed beneath this line.
1. COc1cc(Nc2nccc(N3CCC(NC(=O)c4cccc(NC(C)=O)c4)C3)n2)cc(OC)c1OC (stereo not drawn)
2. CN1c2ccc(NCc3ccc(F)cc3)cc2-c2c(cnn2C)S1(=O)=O

Out:
1: 5%; 2: 0%
